# Target system: Insulin-degrading enzyme (Homo sapiens) (UniProt P14735)
# Sequence (P14735 whole entry, looked up): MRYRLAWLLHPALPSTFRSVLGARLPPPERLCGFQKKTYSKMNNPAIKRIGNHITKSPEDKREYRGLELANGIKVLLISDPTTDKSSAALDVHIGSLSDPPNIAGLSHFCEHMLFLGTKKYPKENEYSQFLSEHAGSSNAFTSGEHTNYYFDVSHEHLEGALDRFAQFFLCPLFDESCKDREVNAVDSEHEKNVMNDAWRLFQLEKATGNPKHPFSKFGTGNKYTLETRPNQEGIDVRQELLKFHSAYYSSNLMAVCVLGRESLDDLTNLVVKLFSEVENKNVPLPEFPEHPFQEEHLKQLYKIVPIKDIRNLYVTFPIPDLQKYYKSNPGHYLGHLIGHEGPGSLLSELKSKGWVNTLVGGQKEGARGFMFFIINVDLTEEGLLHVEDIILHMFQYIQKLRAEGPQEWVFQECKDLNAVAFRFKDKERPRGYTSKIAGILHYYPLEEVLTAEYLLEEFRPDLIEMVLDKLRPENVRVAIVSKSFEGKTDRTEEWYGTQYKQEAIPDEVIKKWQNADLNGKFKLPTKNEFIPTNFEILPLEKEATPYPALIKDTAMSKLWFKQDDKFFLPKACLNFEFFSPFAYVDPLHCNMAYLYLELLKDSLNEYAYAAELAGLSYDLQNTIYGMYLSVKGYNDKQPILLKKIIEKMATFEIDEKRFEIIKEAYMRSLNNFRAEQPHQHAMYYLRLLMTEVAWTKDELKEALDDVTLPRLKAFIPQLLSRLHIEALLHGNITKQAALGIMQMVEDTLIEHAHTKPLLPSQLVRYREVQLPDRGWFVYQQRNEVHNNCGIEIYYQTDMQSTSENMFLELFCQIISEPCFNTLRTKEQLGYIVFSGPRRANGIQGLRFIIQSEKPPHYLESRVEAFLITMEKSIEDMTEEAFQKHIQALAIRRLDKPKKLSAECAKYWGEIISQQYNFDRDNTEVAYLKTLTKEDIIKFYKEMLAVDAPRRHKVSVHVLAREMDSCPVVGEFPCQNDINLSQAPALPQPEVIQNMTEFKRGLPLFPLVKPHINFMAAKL
# Test: fluorescent artefact check on IDE activity – biochemical, fluorogenic FRET1 peptide, fluorescence, powder samples, artefact control for IDE inhibitor project, late-stage follow-up (AID 624066)
# Assay conditions: recombinant IDE
Active and inactive are the calls of the source.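 Rule for the calls: active = IC50 of 10 µM or lower; inactive = IC50 above 10 µM.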
Documented IC50 across a set of molecules

Solved cases (4 shown):
| Molecule | IC50 |
| --- | --- |
| Clc1cccc(-c2nnc(SCc3nc4ccccc4[nH]3)n2Cc2ccco2)c1 | 5 µM |
| O=C(Nc1cccc(C(F)(F)F)c1)c1csc(-c2ccncc2)n1 | 5 µM |
| O=C(CSc1nnc(-c2cccc(Cl)c2)n1Cc1ccco1)Nc1ccccc1C(F)(F)F | > 100 µM (inactive) |
| COc1ccc(C(=O)N2CCCN(C(=O)C3COc4ccccc4C3)CC2)cc1OC (stereo not given) | > 10 µM (inactive) |

Kindly review the next molecule as well.
Note down IC50 recorded for O=C(c1ccc2c(c1)OCCO2)N1CCN(C(=O)C2CCc3ccccc3O2)CC1 (stereo not given)
> 10 µM (inactive)

###

# Target system: Insulin-degrading enzyme (Homo sapiens) (UniProt P14735)
# Test: fluorescent artefact check on IDE activity – biochemical, fluorogenic FRET1 peptide, fluorescence, powder samples, artefact control for IDE inhibitor project, late-stage follow-up (AID 624066)
# Assay conditions: recombinant IDE
Calls of active or inactive are those of the source.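 The calls were made as follows: active = IC50 of 10 µM or lower; inactive = IC50 above 10 µM.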
Readout name: IC50

| Compound | Result |
| --- | --- |
| O=C(c1ccc2c(c1)OCCO2)N1CCCN(C(=O)C2CCc3ccccc3O2)CC1 (stereo not given) | > 10 µM (inactive) |
| COc1cccc(-c2nnc(SCc3nc4ccccc4[nH]3)n2Cc2ccco2)c1 | 6.4 µM |

Jot down IC50 (Insulin-degrading enzyme (Homo sapiens) (UniProt P14735)) of `COc1ccc(NC(=O)CSc2nnc(CN3CCOCC3)n2C)cc1Cl` .
> 100 µM (inactive)

Jot down IC50 (Insulin-degrading enzyme (Homo sapiens) (UniProt P14735)) of `O=C(Nc1ccc2oc(-c3cccnc3)nc2c1)c1ccc2c(c1)OCCO2` .
> 100 µM (inactive)

Jot down IC50 (Insulin-degrading enzyme (Homo sapiens) (UniProt P14735)) of `O=C(CSc1nnc(-c2cccc(Cl)c2)n1Cc1ccco1)Nc1ccc2c(c1)OCCO2` .
> 100 µM (inactive)

Jot down IC50 (Insulin-degrading enzyme (Homo sapiens) (UniProt P14735)) of `O=C(CSc1nnc(-c2cccc(Cl)c2)n1Cc1ccco1)Nc1ccc2cn[nH]c2c1` .
> 100 µM (inactive)

Jot down IC50 (Insulin-degrading enzyme (Homo sapiens) (UniProt P14735)) of `O=C(c1ccc2c(c1)OCO2)N1CCN(C(=O)[C@@H]2COc3ccccc3O2)CC1` .
> 10 µM (inactive)

Jot down IC50 (Insulin-degrading enzyme (Homo sapiens) (UniProt P14735)) of COc1ccc(C(=O)N2CCN(C(=O)C3COc4ccccc4C3)CC2)cc1OC (stereo not given) .
> 10 µM (inactive)

Jot down IC50 (Insulin-degrading enzyme (Homo sapiens) (UniProt P14735)) of `O=C(c1ccc2c(c1)OCO2)N1CCN(C(=O)[C@H]2COc3ccccc3O2)CC1` .
> 10 µM (inactive)

###

# Target system: Insulin-degrading enzyme (Homo sapiens) (UniProt P14735)
# Test: fluorescent artefact check on IDE activity – biochemical, fluorogenic FRET1 peptide, fluorescence, powder samples, artefact control for IDE inhibitor project, late-stage follow-up (AID 624066)
# Assay conditions: recombinant IDE
The source made the active and inactive calls.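 The calls were made as follows: active = IC50 of 10 µM or lower; inactive = IC50 above 10 µM.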
Readout name: IC50

Solved cases (5 shown):
| Compound | IC50 |
| --- | --- |
| Cc1ccc(-c2nc(C(=O)Nc3cccc(C(F)(F)F)c3)cs2)cc1 | > 100 µM (inactive) |
| COc1cc(/C=C2\SC(=S)N(NC(C)=O)C2=O)ccc1OC(=O)c1ccco1 | > 10 µM (inactive) |
| O=C(c1ccc2c(c1)OCO2)N1CCCN(C(=O)C2COc3ccccc3O2)CC1 (stereo unspecified) | > 10 µM (inactive) |
| Cc1nc(-c2cccnc2)sc1C(=O)Nc1cccc(C(F)(F)F)c1 | > 100 µM (inactive) |
| COc1ccc(-c2nc(C(=O)Nc3cccc(C(F)(F)F)c3)cs2)cc1 | > 100 µM (inactive) |

Note down IC50 recorded for O=C(c1ccc2c(c1)OCCO2)N1CCCN(C(=O)C2COc3ccccc3O2)CC1 (stereo unspecified)
> 10 µM (inactive)

Note down IC50 recorded for O=C(c1ccc2c(c1)OCCO2)N1CCN(C(=O)C2COc3ccccc3C2)CC1 (stereo unspecified)
> 10 µM (inactive)

Note down IC50 recorded for `Cc1c(CCC(=O)NCCCn2ccnc2)c(=O)oc2cc3oc4c(c3cc12)CCCC4`
5 µM
